Each item that follows carries a reported pKd.
# MEASURED ON: T1, PUF4 RNA-binding domain (Saccharomyces cerevisiae, UniProt P25339 537-888)
# T1 sequence: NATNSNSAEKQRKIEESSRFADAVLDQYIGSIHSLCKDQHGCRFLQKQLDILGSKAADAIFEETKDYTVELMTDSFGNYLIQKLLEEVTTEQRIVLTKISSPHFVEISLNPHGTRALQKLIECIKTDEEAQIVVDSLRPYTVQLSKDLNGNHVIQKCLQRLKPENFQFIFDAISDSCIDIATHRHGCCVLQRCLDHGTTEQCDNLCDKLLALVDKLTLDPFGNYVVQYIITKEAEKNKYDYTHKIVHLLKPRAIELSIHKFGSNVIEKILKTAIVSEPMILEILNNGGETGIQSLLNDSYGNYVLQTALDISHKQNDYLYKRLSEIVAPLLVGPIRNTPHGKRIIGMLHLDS
# EXPERIMENT: Mg; RNA-MaP; 20 mM Na-HEPES pH 7.4, 30 mM KOAc, 0.75 mM MgCl2, 0.1% Tween-20, 5% glycerol, 0.1 mg/mL BSA, 2 mM DTT; 25 C; 0.0125-409.6 nM protein
# DETAILS: tags: N-His6-TEV cleaved; C-SNAP kept, Cy3B-labelled; label: tethered on chip by stalled RNA polymerase
# reply with the number alone; pKd is -log10 of concentration in mol/L

Solved entries:
BINDER	pKd
UCUCUUUGCUAUAUUAUCUCUU (ssRNA) [Ie_S1_P4E.1_K4.1_C4.1_H4.1_[+2C]_A4.1_F4.1_T4.1]	6.97
Ia_S2_P3E.1_K3.1_C3.1_H3.1_[T1A]_A3.1_F3.1_T3.1 (ssRNA) RNA: UUUGAUUAAUAUGAUAUCGUUCUUUCUAGUAUAUAUUCUUUCUCGAUAUCAUAUUAAUCUUU	6.03
Ic_S2_P4E.1_K4.1_C4.1_H4.1_A4.1_[T5A]_[A6T]_[T7C]_F4.1_[T8A]_[A9G]_T4.1 (ssRNA) RNA: UUUGAUUAAUAUGAUAUCGUUCUUUCUUGUAAUCAGUUCUUUCUCGAUAUCAUAUUAAUCUUU	5.85

Data request: Give the measured pKd for Ib_S2_P4E.1_K4.1_C4.1_H4.1_[T3C]_A4.1_F4.1_[A9T]_T4.1 (ssRNA) RNA: UUUGAUUAAUAUGAUAUCGUUCUUUCUUGCAUAUUUUUCUUUCUCGAUAUCAUAUUAAUCUUU
Data returned: 6.02
